- Test summary: Cytotoxicity against HEK293T cells assessed as reduction in cell viability measured after 48 hrs by MTT assay
- Type: toxicity, cell-based, HEK-293T
- Condition notes: human
Property label: CC50 at 48 h (µM)

• CC1CCN(CC(=O)O[C@H]2C(C)(C)[C@H]3CC[C@]2(C)C3)CC1 = 241
• CC1(C)[C@H]2CC[C@](C)(C2)[C@H]1OC(=O)CCN1CCOCC1 = 318
• CC1CCN(CCCC(=O)O[C@H]2C(C)(C)[C@H]3CC[C@]2(C)C3)CC1 = 130
• C[C@@H]1[C@H]2C[C@@H](C[C@H]1OC(=O)CN1CCN(c3ccccc3)CC1)C2(C)C = 59
• CC1(C)[C@H]2CC[C@](C)(C2)[C@H]1OC(=O)CN1CCCCC1 = 229
• CC1CCN(CCC(=O)O[C@H]2C(C)(C)[C@H]3CC[C@]2(C)C3)CC1 = 188
• CC1(C)[C@H]2CC[C@](C)(C2)[C@H]1OC(=O)CN1CCN(c2ccccc2)CC1 = 101
• C[C@@H]1[C@H]2C[C@@H](C[C@H]1OC(=O)CCN1CCCCC1)C2(C)C = 334
• C[C@@H]1[C@H]2C[C@@H](C[C@H]1OC(=O)CN1CCOCC1)C2(C)C = 199
• C[C@@H]1[C@H]2C[C@@H](C[C@H]1OC(=O)CCCN1CCOCC1)C2(C)C = 116
• CC1(C)[C@H]2CC[C@](C)(C2)[C@H]1OC(=O)CCN1CCCCC1 = 351
• C[C@@H]1[C@H]2C[C@@H](C[C@H]1OC(=O)CCCN1CCN(c3ccccc3)CC1)C2(C)C = 67
• C[C@@H]1[C@H]2C[C@@H](C[C@H]1OC(=O)CCN1CCOCC1)C2(C)C = 281
• C[C@@H]1[C@H]2C[C@@H](C[C@H]1OC(=O)CCN1CCN(c3ccccc3)CC1)C2(C)C = 128
• CCN1CCN(CC(=O)O[C@H]2C(C)(C)[C@H]3CC[C@]2(C)C3)CC1 = 907
• CCN1CCN(CCCC(=O)O[C@H]2C(C)(C)[C@H]3CC[C@]2(C)C3)CC1 = 404
• C[C@@H]1[C@H]2C[C@@H](C[C@H]1OC(=O)CCCN1CCCCC1)C2(C)C = 123

====

- Test summary: Drug uptake in human skin fibroblast lysosomes assessed as fold change in corrected total cell fluorescence at 50 uM measured after 2 hrs by LysoTracker Red DND-99 dye based laser scanning confocal microscopy relative to control
- Type: ADME, subcellular, Lysosome
Listing of entries alongside the reported fold change (FC).
Property label: fold change (FC)

- C[C@@H]1[C@H]2C[C@@H](C[C@H]1OC(=O)CN1CCOCC1)C2(C)C: 0.56
- C[C@@H]1[C@H]2C[C@@H](C[C@H]1OC(=O)CN1CCCCC1)C2(C)C: 0.46
- CN1CCN(CCC(=O)O[C@H]2C(C)(C)[C@H]3CC[C@]2(C)C3)CC1: 0.33
- CC1(C)[C@H]2CC[C@](C)(C2)[C@H]1OC(=O)CCCN1CCOCC1: 0.56
- C[C@@H]1[C@H]2C[C@@H](C[C@H]1OC(=O)CCN1CCCCC1)C2(C)C: 0.37

====

- Test summary: Cytotoxicity against HEK293T cells assessed as reduction in cell viability measured after 48 hrs by MTT assay
- Type: toxicity, cell-based, HEK-293T
- Condition notes: human
Items are presented alongside their recorded CC50 at 48 h.
Property label: CC50 at 48 h (µM)

* CC1(C)[C@H]2CC[C@](C)(C2)[C@H]1OC(=O)CCCN1CCOCC1 | 261
* CN1CCN(CC(=O)O[C@H]2C(C)(C)[C@H]3CC[C@]2(C)C3)CC1 | 645
* C[C@@H]1[C@H]2C[C@@H](C[C@H]1OC(=O)CCN1CCN(C)CC1)C2(C)C | 318
* C[C@@H]1[C@H]2C[C@@H](C[C@H]1OC(=O)CCCN1CCN(C)CC1)C2(C)C | 164
